Source: PubChem BioAssay AID1159580

Consider the following compounds; for each one, report its normalized growth.
- method.description: chemical genetic growth profiling, strain panel (AID 1159580);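 note: tested at 20 µM; growth read once vehicle control cultures reached saturation at 30 °C; 1 = growth at the plate median or of vehicle wells; lower values mean less growth of the strain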
- experimental.parameters: S. cerevisiae deletion strains, growth OD, locus YDR226W, strain ADK1, active compounds read low
Out of some 5,500 compounds screened, about 2,000 (36%) were called active. Not shown: some 18% with an inconclusive outcome. Some of the results follow.
// no unit string in output, number only

Q: What value of normalized growth has been recorded for this entry: "O=C(NCc1ccncc1)c1ccc(-n2cccn2)cc1"
Result: 0.983

Q: Endpoint output: normalized growth of "O=S(=O)(N/N=C\c1ccc(Cl)cc1)c1ccc(-c2ccccn2)s1" . Value?
Result: 0.988

Q: Find the recorded normalized growth belonging to "CC(C)c1ccc(NC(=S)NC(=O)c2ccccc2)cc1" and report it.
Result: 0.955

Q: Which normalized growth value belongs to "N#CC(C#N)=C/C=C(/Sc1nc2ccccc2s1)c1ccc(Br)cc1" ?
Result: 0.28

Q: Quick one: normalized growth for O=C1CSC(c2cccnc2)N1c1ccc(Cl)cc1Cl (stereo not drawn) ?
Result: 0.989

Q: normalized growth for "O=[N+]([O-])/C=C/c1ccsc1" ?
Result: 0.377

Q: Query: normalized growth; subject: "O=C(NC(=S)Nc1cccc(C(F)(F)F)c1)c1ccc2nonc2c1"
Result: 0.957

Q: Give the measured normalized growth of "Cc1ccc(S(=O)(=O)CCSC2=CC(=O)CC(C)(C)S2)cc1" .
Result: 0.994

Q: Which normalized growth value belongs to "FC(F)(F)c1cccc(NNC(=S)Nc2ccccc2)c1" ?
Result: 0.999

Q: GET /values?readout=normalized growth&item= "O=[N+]([O-])/C=C/c1ccc(F)cc1"
Result: 0.0885

Q: Consider the compound shown here: OC(CNCc1ccc(Cl)cc1)CO/N=C\C1=C(Cl)c2cc(Cl)ccc2OC1 (stereo not drawn) What is its recorded normalized growth?
Result: 0.97

Q: Please report the recorded normalized growth for "Fc1cccc(Cl)c1CSc1nncn1-c1ccc(OCc2ccccc2)cc1" .
Result: 0.999

Q: Would you mind telling me what normalized growth value was observed for "O=C(c1ccc2ccccc2c1)N1CCN(c2ccnc3cc(Cl)ccc23)CC1" ?
Result: 1

Q: // lookup normalized growth for "Cc1cc(Br)ccc1-n1c(Sc2c([N+](=O)[O-])cc(C(F)(F)F)cc2[N+](=O)[O-])nc2ccccc2c1=O"
Result: 0.981

Q: What does the data say about its normalized growth? Entry: "O=c1c(Cl)c(-n2cccn2)cnn1-c1ccc(Cl)cc1Cl"
Result: 0.974

Q: # input compound: "O=[N+]([O-])c1ccccc1CS(=O)(=O)c1nc2ccccc2s1" ; wanted: its normalized growth
Result: 0.878

Q: What does the data say about its normalized growth? Entry: "CCCc1c(C(=O)Sc2ccccn2)cnn1-c1ccc(Cl)cc1"
Result: 0.959

Q: For "CSc1cc(-c2ccncc2)nc(-c2cccs2)c1" , what is its reported normalized growth?
Result: 0.951

Q: Give its normalized growth value. Item: "O=C(Nc1ccc(N2CCOCC2)cc1)c1ccc(-n2cccn2)cc1"
Result: 0.982

Q: May I ask what normalized growth has been recorded for "CC(=O)Nc1ccc(/C=C/[N+](=O)[O-])cc1" ?
Result: 0.975

Q: Endpoint output: normalized growth of "O=C(Nc1ccc(C(F)(F)F)cc1)N1CCN(c2ccnc3cc(Cl)ccc23)CC1" . Value?
Result: 0.983

Q: Fill in the blank: the reported normalized growth of "CC(=O)c1sc(SCCS(=O)(=O)c2ccc(C)cc2)c2c1CC(C)(C)CC2=O" is ____.
Result: 0.962

Q: For "C/C(=C\c1ccc2c(c1)OCO2)[N+](=O)[O-]" , what is its reported normalized growth?
Result: 0.112

###

So I've got a bunch of compounds here, and I need their normalized growth values.
- method.description: chemical genetic growth profiling, strain panel (AID 1159580);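 note: tested at 20 µM; growth read once vehicle control cultures reached saturation at 30 °C; 1 = growth at the plate median or of vehicle wells; lower values mean less growth of the strain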
- experimental.parameters: S. cerevisiae deletion strains, growth OD, locus YPL031C, strain PHO85, active compounds read low
Screen size: about 5,500 compounds; about 2,000 (36%) were called active. Not shown: some 18% with an inconclusive outcome. Some of the results follow.
Note: the reply should be a number with no unit written.

Q: Record request: normalized growth value, item "O=C(NCCSCc1cccc(C(F)(F)F)c1)Nc1cccc(C(F)(F)F)c1"
Result: 1.01

Q: Which normalized growth reading was recorded for the compound "O=C(NCCSCc1ccco1)Nc1cc(Cl)cc(Cl)c1" ?
Result: 0.872

Q: # input compound: "FC(F)(F)c1cccc(NC(=S)Nc2ccccc2)c1" ; wanted: its normalized growth
Result: 0.952

Q: Give the measured normalized growth of "O=C(NCCSCc1cccc(C(F)(F)F)c1)c1ccc(Cl)cc1" .
Result: 0.892

Q: Returns the measured normalized growth for the input compound. Input: "O=C(NC(=S)Nc1cccc(C(F)(F)F)c1)c1ccc2nonc2c1"
Result: 0.912

Q: I am curious: what normalized growth value has been reported for "FC(F)(F)c1cccc(NNC(=S)Nc2ccccc2)c1" ?
Result: 0.894

###

- method.description: chemical genetic growth profiling, strain panel (AID 1159580);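 note: tested at 20 µM; growth read once vehicle control cultures reached saturation at 30 °C; 1 = growth at the plate median or of vehicle wells; lower values mean less growth of the strain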
- experimental.parameters: S. cerevisiae deletion strains, growth OD, locus YER016W, strain bim1, active compounds read low
The whole screen tested about 5,500 compounds, of which about 2,000 (36%) were called active. Not shown: some 18% with an inconclusive outcome. Some of the results follow.
recorded.metric: normalized growth
Respond numerically, and do not add a unit to the figure.

Q: Param item = O=c1[nH]c(=O)n(C2C[C@@H](O)[C@@H](CO)O2)cc1F (stereo partly drawn) ; retrieve measured normalized growth.
Result: 1.01

Q: Look up normalized growth for this compound: NCC(O)c1ccc(O)cc1 (stereo not drawn)
Result: 0.999

Q: Look up normalized growth: "Nc1ncnc2c1ncn2[C@@H]1O[C@H](CO)[C@@H](O)[C@H]1O"
Result: 0.997

Q: Given the entry "O=[N+]([O-])c1ccc(O)c([N+](=O)[O-])c1" , report its measured normalized growth.
Result: 0.89

Q: Need normalized growth, item "C1CNCCN1"
Result: 0.999

Q: Need normalized growth of "O=[N+]([O-])c1cc(O)c(O)c([N+](=O)[O-])c1" , thanks.
Result: 0.995

Q: Which normalized growth value is on record for "CC(=O)Nc1cc([As](=O)(O)O)ccc1O" ?
Result: 1.01

Q: Fill in the blank: the reported normalized growth of CC(C)NCC(O)c1ccc(O)c(O)c1 (stereo not drawn) is ____.
Result: 1.01

Q: Reported normalized growth for "Nc1ccc([As](=O)(O)O)cc1" : what is it?
Result: 1

Q: What value of normalized growth has been reported for the following compound? Nc1ncnc2c1ncn2C1C[C@H](O)[C@@H](CO)O1 (stereo partly drawn)
Result: 1.02

Q: Need normalized growth, item "CNC[C@@H](O)c1ccc(O)c(O)c1"
Result: 1.01

Q: Which measured normalized growth value corresponds to "COC(C)(C)CCC[C@H](C)C/C=C/C(C)=C/C(=O)OC(C)C" ?
Result: 1.02

Q: Which value of normalized growth has been reported for Nc1ncnc2c1ncn2C1O[C@H](COP(=O)(O)O)[C@@H](O)[C@H]1O (stereo partly drawn) in the records?
Result: 0.97

###

- method.description: chemical genetic growth profiling, strain panel (AID 1159580);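 note: tested at 20 µM; growth read once vehicle control cultures reached saturation at 30 °C; 1 = growth at the plate median or of vehicle wells; lower values mean less growth of the strain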
- experimental.parameters: S. cerevisiae deletion strains, growth OD, locus YDL074C, strain BRE1
The campaign covered roughly 5,500 compounds. About 2,000 (36%) were called active. Inconclusive results (about 18%) are left out. Cut-off read from the data, not from the text of the source: active = normalized growth mostly below about 0.91 (no sharp cut-off); inconclusive = no clear call, values can overlap the other calls; inactive = mostly above about 0.92. The list shows a part of the results.
Reply using exactly one outcome from active, inactive

Q: Just curious, what result did "N[C@@H](Cc1ccc(O)c(O)c1)C(=O)O" get here?
Result: inactive

Q: So what was the verdict on "CC(C)N(C(=O)SCC(Cl)=C(Cl)Cl)C(C)C" in this test?
Result: inactive

Q: Per the records of this test, what outcome belongs to "CCCCC1=NC2(CCCC2)C(=O)N1Cc1ccc(-c2ccccc2-c2nn[nH]n2)cc1" ?
Result: inactive

Q: Which outcome did this test record for the compound CC1(C)C(O)CC(O)C2(C)C1CC(=O)C1(C)C2CCC2(C)C(C(=O)O)OC(=O)C3OC321 (centres undefined) ?
Result: inactive

Q: Which outcome was assigned to NCC(CC(=O)O)c1ccc(Cl)s1 (centres undefined) in this test?
Result: inactive

Q: Any idea what this test logged for CC(C)NCC(O)c1ccc2ccccc2c1 (centres undefined) ?
Result: inactive

Q: What call does the record list for CC(=O)OCC1(C)CCC2(C)CCC3(C)C4=CCc5c(cc(OC(C)=O)c(OC(C)=O)c5C)C4(C)CCC3(C)C2C1 (centres undefined) ?
Result: inactive

Q: Given C=CC(C1=CC(=O)C(OC)=CC1=O)c1ccccc1 (centres undefined) , state the outcome it received in this test.
Result: inactive

Q: Just curious, what result did CC1(C)C(=O)C=C[C@@]2(C)C1=C(O)C(=O)[C@]1(C)C2CC[C@@]2(C)[C@H](c3ccoc3)C[C@H]3O[C@]321 (some centres undefined) get here?
Result: active

Q: For "C=C[C@](C)(O)CCC=C(C)C" , which call appears in the assay record?
Result: inactive

Q: Look up the recorded call for CN(C)CCOC(C)(c1ccccc1)c1ccccn1 (centres undefined) in this test.
Result: inactive

Q: Which outcome was assigned to "O=C(O)/C=C/C=C/c1ccccc1" in this test?
Result: inactive

Q: Which outcome did this test record for the compound CC(=O)c1c(O)c(C)c(O)c2c1OC1=CC(=O)C(C(C)=O)C(=O)C12C (centres undefined) ?
Result: inactive

Q: Any idea what this test logged for "COc1cc2c(c(OC)c1OC)-c1ccc(O)c(=O)cc1[C@@H](NC(C)=O)CC2" ?
Result: active

Q: Assay outcome for CC(Cc1ccc(O)c(O)c1)C(C)Cc1ccc(O)c(O)c1 (centres undefined) : what was it?
Result: active

Q: What call does the record list for "COc1cc2c(c(OC)c1OC)-c1ccc(OC)c(=O)cc1[C@@H](NC(C)=O)CC2" ?
Result: inactive

Q: Look up the recorded call for CC(C)(C)NCC(O)c1ccccc1Cl (centres undefined) in this test.
Result: inactive

Q: Per the records of this test, what outcome belongs to "Cc1ccc(/C(=C\CN2CCCC2)c2ccccn2)cc1" ?
Result: inactive

Q: Could you please tell me the result logged for "C/C=C/c1ccc2c(c1)OCO2" in this assay?
Result: inactive

Q: Name the outcome recorded for CC(=O)O[C@@H]1CC2C(C)(C)C=CC(=O)[C@]2(C)C2CC[C@@]3(C)[C@H](c4ccoc4)OC(=O)C4OC43[C@@]21C (some centres undefined) in the assay.
Result: inactive

Q: Entry Nc1nc2c(ncn2C2C[C@H](O)[C@@H](CO)O2)c(=O)[nH]1 (some centres undefined) : call = ?
Result: inactive

Q: Please let me know the test result on file for NC(=NCCC[C@H](N)C(=O)O)NC(CCC(=O)O)C(=O)O (some centres undefined) .
Result: inactive

Q: Please let me know the test result on file for "Nc1ncnc2c1ncn2[C@@H]1O[C@H](CO)[C@@H](O)[C@H]1O" .
Result: inactive

Q: Kindly provide the recorded test outcome for the following compound: CC(C)=CCC[C@](C)(O)C1CC=C(C)CC1 (some centres undefined)
Result: inactive

Q: Outcome logged for "Oc1c(Br)cc(Br)c2cccnc12" in this assay:
Result: active

Q: // outcome(item) with item = "COC(C)(C)CCC[C@H](C)C/C=C/C(C)=C/C(=O)OC(C)C"
Result: inactive

Q: Outcome logged for "NC[C@H](O)c1ccc(O)c(O)c1" in this assay:
Result: inactive

Q: I would be grateful if you could indicate the recorded call for "CCN(CC)CCOc1ccc(/C(=C(\Cl)c2ccccc2)c2ccccc2)cc1" .
Result: active

Q: Test call for this compound, please: "Nc1ccc(S(=O)(=O)Nc2ccccn2)cc1"
Result: inactive

Q: Which outcome was assigned to C=CC(C1=CC(=O)C(OC)=CC1=O)c1ccc(O)cc1 (centres undefined) in this test?
Result: inactive

Q: How was "COc1ccc(C(Cl)=C(c2ccc(OC)cc2)c2ccc(OC)cc2)cc1" classified in this test?
Result: inactive

Q: State the result this test recorded for CC1(C)C(O)CC(O)C2(C)C1CC(O)C1(C)C2CCC2(C)C(c3ccoc3)CC3OC321 (centres undefined) .
Result: inactive

Q: Write down the call the test reported for this compound. Item: "NCCCC[C@H](N[C@@H](CCc1ccccc1)C(=O)O)C(=O)N1CCC[C@H]1C(=O)O"
Result: inactive

Q: Outcome? "CC(=O)NCCCCCC(=O)O"
Result: inactive

Q: Test call, this compound: "C=C[C@@H](C1=CC(=O)C(OC)=C(OC)C1=O)c1ccccc1"
Result: inactive

Q: Please indicate how the test categorized CC(C)NCC(O)c1ccc(O)c(O)c1 (centres undefined) .
Result: inactive

Q: Short answer needed: outcome of this test for C=CC(C1=CC(=O)C(OC)=CC1=O)c1ccc(OC)cc1 (centres undefined) ?
Result: inactive

Q: For "CCCCC1(COC(=O)CCC(=O)O)C(=O)N(c2ccccc2)N(c2ccccc2)C1=O" , which call appears in the assay record?
Result: inactive

Q: Tell me the assay call for "COC(=O)Oc1ccccc1C(=O)O" please.
Result: inactive

Q: For "COc1cc(C(=O)NCc2ccc(OCCN(C)C)cc2)cc(OC)c1OC" , which call appears in the assay record?
Result: inactive

Q: Dear colleague, could you share the recorded outcome for CC(=O)O[C@@H]1C[C@@]2(C)[C@H](c3ccoc3)C[C@H]3O[C@]32[C@]2(C)C(=O)C(O)=C3C(C)(C)C(=O)C=C[C@]3(C)C12 (some centres undefined) when you have a moment?
Result: active

Q: What did this assay record as the result for CN1C(CC(=O)c2ccccc2)CCCC1CC(O)c1ccccc1 (centres undefined) ?
Result: inactive

Q: Hi, sorry to bother you, what did the test record for "O=C(CCCCCCCCCCCCC1CCCC1)Nc1ccc(S(=O)(=O)c2ccc(NC(=O)CCCCCCCCCCCCC3CCCC3)cc2)cc1" ?
Result: inactive

Q: For "CCN(CC)CCOc1ccc2c(c1)C(=O)c1cc(OCCN(CC)CC)ccc1-2" , which call appears in the assay record?
Result: inactive
